SYSTEM NAME: recombinant human PDE2A4 (Homo sapiens, UniProt O00408, P38L/T213A/V664A)
Sequence (O00408 1-932 isoform O00408-4 P29L/T204A/V655A): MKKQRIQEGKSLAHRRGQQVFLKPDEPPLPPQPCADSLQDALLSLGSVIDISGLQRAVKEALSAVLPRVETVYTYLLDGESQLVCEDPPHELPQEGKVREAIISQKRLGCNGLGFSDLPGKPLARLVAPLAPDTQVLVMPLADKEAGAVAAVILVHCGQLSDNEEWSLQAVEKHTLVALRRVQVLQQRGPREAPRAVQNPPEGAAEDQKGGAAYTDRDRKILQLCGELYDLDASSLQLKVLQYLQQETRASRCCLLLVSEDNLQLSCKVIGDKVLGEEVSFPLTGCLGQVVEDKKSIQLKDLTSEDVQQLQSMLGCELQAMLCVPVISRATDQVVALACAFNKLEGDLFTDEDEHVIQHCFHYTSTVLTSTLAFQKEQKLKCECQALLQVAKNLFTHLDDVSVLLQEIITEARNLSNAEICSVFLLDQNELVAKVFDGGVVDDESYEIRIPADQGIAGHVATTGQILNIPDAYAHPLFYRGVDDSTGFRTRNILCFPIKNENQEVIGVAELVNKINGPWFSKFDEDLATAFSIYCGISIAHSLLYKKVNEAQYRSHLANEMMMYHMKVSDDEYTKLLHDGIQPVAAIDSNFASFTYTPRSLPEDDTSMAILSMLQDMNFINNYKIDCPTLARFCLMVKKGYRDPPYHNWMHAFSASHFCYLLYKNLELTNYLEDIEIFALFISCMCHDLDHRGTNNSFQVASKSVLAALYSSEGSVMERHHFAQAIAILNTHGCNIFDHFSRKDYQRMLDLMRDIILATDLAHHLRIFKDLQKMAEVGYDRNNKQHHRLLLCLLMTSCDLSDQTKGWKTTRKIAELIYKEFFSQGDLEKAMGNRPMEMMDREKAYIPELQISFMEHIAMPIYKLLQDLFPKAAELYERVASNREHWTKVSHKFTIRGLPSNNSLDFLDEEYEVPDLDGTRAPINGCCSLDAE
MEASUREMENT NOTES: Inhibition of recombinant human PDE2A4 enzyme activity (QM7 lysate)
MEASUREMENT CONTEXT: QM7 lysate containing recombinant human PDE2A4; inhibitors 10^−9-10^−4 μM; read-out: IC50, inhibition of enzymatic activity of recombinant human PDE2A4
MEASUREMENT KIND: pIC50
Scale: negative log10 of molar concentration, which is what pIC50 denotes.

The reported pIC50 value, recombinant human PDE2A4 (Homo sapiens, UniProt O00408, P38L/T213A/V664A), for CCCCCCC(C(C)O)n1cnc2c(N)ncnc21 (stereo not drawn) [EHNA, erythro-9-(2-hydroxy-3-nonyl)adenine] reads 5.96
